test system: MT4; assay: Inhibitory effect on replication of RNA virus cell growth in MT-4 cell line.; assay type: functional, cell-based; settings: Homo sapiens
Attribute: IC50
readout.type: IC50 (µg/mL)

smiles.code	readout.type	comparator	measured
Nc1ncnc2c1ncn2[C@@H]1C=C(CO)[C@@H](O)[C@H]1O	IC50	=	0.02
Nc1ncnc2c1ncn2[C@@H]1C=C(CF)[C@@H](O)[C@H]1O	IC50	=	3
C=CC1=C[C@@H](n2cnc3c(N)ncnc32)[C@H](O)[C@@H]1O	IC50	=	6
C[C@@H](O)C1=C[C@@H](n2cnc3c(N)ncnc32)[C@H](O)[C@@H]1O	IC50	=	0.09
CSCC1=C[C@@H](n2cnc3c(N)ncnc32)[C@H](O)[C@@H]1O	IC50	=	60
Nc1ncnc2c1ncn2[C@@H]1C=C(CCl)[C@@H](O)[C@H]1O	IC50	=	0.2
CC1=C[C@@H](n2cnc3c(N)ncnc32)[C@H](O)[C@@H]1O	IC50	=	2.5
COCC1=C[C@@H](n2cnc3c(N)ncnc32)[C@H](O)[C@@H]1O	IC50	=	45
C[C@H](O)C1=C[C@@H](n2cnc3c(N)ncnc32)[C@H](O)[C@@H]1O	IC50	>	100

---

system: MT4; test: Inhibitory effect on replication of RNA virus HIV-2 in MT-4 cell line.; type: functional, cell-based; settings: Homo sapiens
readout.type: IC50

smiles.code	measured
Nc1ncnc2c1ncn2[C@@H]1C=C(CF)[C@@H](O)[C@H]1O	> 1.5 µg/mL
COCC1=C[C@@H](n2cnc3c(N)ncnc32)[C@H](O)[C@@H]1O	> 40 µg/mL
C[C@H](O)C1=C[C@@H](n2cnc3c(N)ncnc32)[C@H](O)[C@@H]1O	> 100 µg/mL
CC1=C[C@@H](n2cnc3c(N)ncnc32)[C@H](O)[C@@H]1O	> 1.5 µg/mL
C[C@@H](O)C1=C[C@@H](n2cnc3c(N)ncnc32)[C@H](O)[C@@H]1O	> 0.03 µg/mL
CSCC1=C[C@@H](n2cnc3c(N)ncnc32)[C@H](O)[C@@H]1O	> 40 µg/mL

---

test system: MDCK; test: cells; conditions: Canis lupus familiaris
readout.type: IC50

smiles.code	measured
C=CC1=C[C@@H](n2cnc3c(N)ncnc32)[C@H](O)[C@@H]1O	> 100 µg/mL
Nc1ncnc2c1ncn2[C@@H]1C=C(CO)[C@@H](O)[C@H]1O	> 20 µg/mL
Nc1ncnc2c1ncn2[C@@H]1C=C(CCl)[C@@H](O)[C@H]1O	> 10 µg/mL
COCC1=C[C@@H](n2cnc3c(N)ncnc32)[C@H](O)[C@@H]1O	> 100 µg/mL
Nc1ncnc2c1ncn2[C@@H]1C=C(CF)[C@@H](O)[C@H]1O	> 100 µg/mL
CSCC1=C[C@@H](n2cnc3c(N)ncnc32)[C@H](O)[C@@H]1O	> 100 µg/mL
C[C@@H](O)C1=C[C@@H](n2cnc3c(N)ncnc32)[C@H](O)[C@@H]1O	> 100 µg/mL
CC1=C[C@@H](n2cnc3c(N)ncnc32)[C@H](O)[C@@H]1O	> 100 µg/mL
C[C@H](O)C1=C[C@@H](n2cnc3c(N)ncnc32)[C@H](O)[C@@H]1O	> 100 µg/mL

---

system: PRK; assay: Inhibitory effect on replication of RNA virus cell morphology in PRK cell line.; assay type: functional, cell-based; conditions: Oryctolagus cuniculus

molecule	IC50
COCC1=C[C@@H](n2cnc3c(N)ncnc32)[C@H](O)[C@@H]1O	> 400 µg/mL
C[C@H](O)C1=C[C@@H](n2cnc3c(N)ncnc32)[C@H](O)[C@@H]1O	> 400 µg/mL
C=CC1=C[C@@H](n2cnc3c(N)ncnc32)[C@H](O)[C@@H]1O	> 400 µg/mL
Nc1ncnc2c1ncn2[C@@H]1C=C(CCl)[C@@H](O)[C@H]1O	40 µg/mL
CSCC1=C[C@@H](n2cnc3c(N)ncnc32)[C@H](O)[C@@H]1O	> 400 µg/mL
CC1=C[C@@H](n2cnc3c(N)ncnc32)[C@H](O)[C@@H]1O	> 400 µg/mL
Nc1ncnc2c1ncn2[C@@H]1C=C(CF)[C@@H](O)[C@H]1O	> 400 µg/mL
Nc1ncnc2c1ncn2[C@@H]1C=C(CO)[C@@H](O)[C@H]1O [NEOPLANOCIN A]	40 µg/mL
C[C@@H](O)C1=C[C@@H](n2cnc3c(N)ncnc32)[C@H](O)[C@@H]1O	> 400 µg/mL

Source listed as ChEMBL document CHEMBL1126278.
